System: MS2 coat protein
Assay: apparent KD of MS2 coat protein; designed switch direction (-1 OFF switch, 1 ON switch): -1; higher = weaker reporter binding
Conditions: input ligand: none
Please note: rule met applies when apparent KD of MS2 coat protein is 30 nM or greater, and rule not met applies otherwise.

Past entries and their recorded results:
# biosequence, classLabel
measured = [
    ("GCUUGUGGGCAAGGAUAUCCUACGCUGUUCUGGUUCGUGUCUGUCACAUGAGGAUCACCCAUGUGGGAGAAGGUGCCUUUGGUG [Design 63] (Eterna round: R96, puzzle: Exclusion NG 2)", "rule not met"),
    ("ACAUGUUAUCCAUGAUAUUACAUGAGGAUCACCCAUGUUAUGGCGAUUUUGAUGUGUAAGUUUGUUGCUCGUCUUAU [JR_STOV1_Sub060] (Eterna round: R97, puzzle: Sensor, turn-off variant 1)", "rule met"),
    ("AUCAGCUCGUCAGGAUAUAUAUACAUGAGGAUCACCCAUGUAAGAUCAGGCUUCGGCCAAUGUAUAUAGAAGGGACGAGCUGAU [ENG2/11-B3] (Eterna round: R96, puzzle: Exclusion NG 2)", "rule met"),
    ("AAAACGGUUCUCGUGAGGUACAUGAGGAUCACCCAUGUGAGUCAGGAUAUCCCGUCCAAGUGCGAGGAGAAGGGACGCACUUGG [Esesence] (Eterna round: R96, puzzle: Exclusion NG 3)", "rule met"),
    ("CGCUGGACAGGAUAUGUUCUUGGGCACUUGAGGAUCACCCAAGUCAUCAAGAAAUCAGGCACAGAAGGGUUUAUGG [salish99_ex5_r4_021] (Eterna round: R97, puzzle: Exclusion 5)", "rule not met"),
]

Exercise: State whether the measured apparent KD of MS2 coat protein reaches 30 nM, counting equality as reaching it, for GGAGUUAGAGAGGAUAUGGAGGAGAGGCCAAUUCCAGAAGGUUCAACAUGAGGAUCACCCAUGUAUUUUCCUCA [AK-MS2ROC-r4-exclusion6-2] (Eterna round: R97, puzzle: Exclusion 6)
Key: rule met

Exercise: State whether the measured apparent KD of MS2 coat protein reaches 30 nM, counting equality as reaching it, for UAUAUAUAGUAAGGAUAUGUAAUUAUAUUAUAAACAGAAGGUACUGACAUGAGGAUCACCCAUGUUUUAGUGUGGGCAUGUAGA [JMF's solution 38] (Eterna round: R96, puzzle: Exclusion NG 1)
Key: rule met

Exercise: State whether the measured apparent KD of MS2 coat protein reaches 30 nM, counting equality as reaching it, for CAGUACUGAGGAUAUACAUGAGGAUCACCCAUGUGUUCCUGCUAGGAAACUAGCAAAGGUAGAAGGCAGUACUG [Salish 065 m3] (Eterna round: R97, puzzle: Exclusion 3)
Key: rule not met

====

apparent KD of MS2 coat protein listing for selected sequences.
System: MS2 coat protein
Test: apparent KD of MS2 coat protein; designed switch direction (-1 OFF switch, 1 ON switch): -1; higher = weaker reporter binding
Settings: input ligand: none
Field format: number, assumed nM, no unit text.

Some solved entries appear below for comparison.
# biosequence, apparent KD of MS2 coat protein / nM
measured = [
    ("AUGUCGGCAGGAUAUACAUGAGGAUCACCCAUGUAAAUUUUUCGUUUAACUUGAAUGUGUAGAAGGGCCAUGAA [Ex3 #68] (Eterna round: R97, puzzle: Exclusion 3)", 33),
    ("GUGCGACAUGAGGAUCACCCAUGUCAGGAUAUAUAGAACGAUAACGAAAUCGUUAUCGGUAGAAGGGACGGUGA [Eternabot (L1) Solution 48] (Eterna round: R97, puzzle: Exclusion 1)", 21.4),
]

Could you now look at the following sequence, please?
Exercise: Request the reported apparent KD of MS2 coat protein associated with AAACGGCAUAGAGGAUAUGCUUACCUGGGUCGUCUUCAAACAUGAGGAUCACCCAUGUAGUCGACGCAGAAGGUUAUCAAAGCC [ExNG2 2nd] (Eterna round: R96, puzzle: Exclusion NG 2)
Key: 17.9
